# Target system: human 5-HT6 subtype of receptor (Homo sapiens)
# Sequence (P50406 whole entry): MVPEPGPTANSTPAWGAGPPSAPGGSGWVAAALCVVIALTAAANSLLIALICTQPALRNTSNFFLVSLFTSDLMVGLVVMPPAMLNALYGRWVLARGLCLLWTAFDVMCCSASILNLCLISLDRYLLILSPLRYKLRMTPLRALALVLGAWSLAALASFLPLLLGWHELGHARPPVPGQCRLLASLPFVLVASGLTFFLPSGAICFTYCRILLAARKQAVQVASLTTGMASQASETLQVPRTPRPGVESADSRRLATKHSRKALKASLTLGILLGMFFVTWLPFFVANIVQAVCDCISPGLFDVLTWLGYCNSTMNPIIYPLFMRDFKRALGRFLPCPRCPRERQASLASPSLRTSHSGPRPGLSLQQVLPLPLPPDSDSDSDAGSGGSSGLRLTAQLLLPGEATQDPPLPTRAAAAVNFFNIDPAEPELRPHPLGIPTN
# Assay name: biochemical
Property: pKi
# pKi: negative log10 of molar concentration; output just the value

Data request: What pKi appears in the records for this compound with human 5-HT6 subtype of receptor (Homo sapiens)? O=S(=O)(c1cccc2ccccc12)n1ccc2ccc(C3CCN4CCCC4C3)cc21 (single isomer, unassigned)
Data returned: 9.15

###

# Target system: human 5-HT6 receptors (Homo sapiens, UniProt P50406)
# Sequence (P50406 whole entry): as above
# Assay name: functional adenylyl cyclase assay: cAMP accumulation in stably transfected HEK293 cells
# Condition set: 1 uM serotonin
Property: pIC50
# pIC50: negative log10 of molar concentration; output just the value

Data request: What pIC50 appears in the records for this compound with human 5-HT6 receptors (Homo sapiens, UniProt P50406)? O=S(=O)(c1cccc2ccccc12)n1ccc2ccc(N3CCN4CCCC4C3)cc21 (stereo not shown)
Data returned: 8.14
